test system: SNB-75 CNS; assay: NCI-60 one-dose screen, 48 h; details: 10 µM unless noted
Compounds without any hit were thinned out: in the full panel of roughly 83,000, 20% have a hit. Activity calls are given as the source filed them. How the source made its calls: active means growth percent below 10; inactive means the rest.
Returns: one label drawn from TRUE (active), FALSE (inactive)

Record excerpt, results attached:
CC/C(=N\Nc1nc2ccccc2n1C)c1ccccn1 = FALSE
CC(=O)CC(=O)OC/C=C(/C)CCC=C(C)C = FALSE
CCOC(=O)CSSCC(=O)OCC = FALSE
O=C1C(Cl)=C(SC2=NCCN2)C(=O)c2ccccc21 = FALSE

// return assay outcome for Cc1ccc(S(=O)(=O)Nc2cccc(Cn3c(=O)[nH]c4ccc(Oc5ncccn5)cc4c3=O)c2)cc1
FALSE

// return assay outcome for CCOC(=O)c1cc(C(=O)c2ccc(Br)cc2)n2cc(C)cc(C)c12
FALSE

// return assay outcome for Br/C(=N\Nc1nn[nH]n1)c1ccccc1
FALSE

// return assay outcome for CC(C)(C)C(=O)CCCCCCCC/C=C/CCCC(O)c1ccco1 (configuration not stated)
FALSE

// return assay outcome for C=C[C@]1(C)C=C2C(=O)[C@@]3(O)OC[C@@]4(CCCC(C)(C)C43O)C2(O)C(O)C1 (some centres not stated)
FALSE

###

test system: NCI-H322M lung; experiment: NCI-60 one-dose screen, 48 h; conditions: 10 µM unless noted
The panel holds about 83,000 compounds, 20% with a hit somewhere; the sample as a whole holds those more often. Activity calls are given as the source filed them. How the source made its calls: active means growth percent below 10; inactive means the rest.
Returns: one label drawn from t = active, f = inactive

Record excerpt, results attached:
O=c1c2c(c3ccccc3n1-c1ccccc1)NC(=S)NC2c1ccccc1 (centres undefined) = f
COC(=O)[C@H](Cc1cn(C)cn1)NC(=O)[C@@H](NC(=O)Nc1cc(C(F)(F)F)cc(C(F)(F)F)c1)C(C)(C)C = t
CCOC(=O)CSSCC(=O)OCC = f

Would you kindly look at the next entry?
// return assay outcome for CC(C)(C)C(=O)CCCCCCCC/C=C/CCCC(O)c1ccco1 (centres undefined)
f

###

test system: NCI-H23 lung; assay: NCI-60 one-dose screen, 48 h (100 = growth as untreated, 0 = no growth, -100 = all killed); details: 10 µM unless noted
This is part of a sample that, as a whole, favours compounds with a hit. Of some 83,000 tested, about 20% had one in any assay.
Lab note: anything with growth below 80% is marked 1 (yes); values at 80% or higher are marked 0 (no).

Record excerpt, results attached:
COC(=O)c1cc(Nc2ccc(O)c3c2C(=O)c2c([N+](=O)[O-])ccc(O)c2C3=O)cc(C(=O)OC)c1 = 1 (yes)
Cc1ccc(S(=O)(=O)Nc2cccc(Cn3c(=O)[nH]c4ccc(Oc5ncccn5)cc4c3=O)c2)cc1 = 0 (no)
CCc1c(C)c2ccc(OCC(=O)N=Nc3c(O)[nH]c4ccccc34)c(C)c2oc1=O = 1 (yes)
COC(=O)CC(=O)C(=O)OC = 0 (no)
CCOC(=O)c1sc(NS(=O)(=O)c2ccccc2)nc1C = 0 (no)
CCN(CC)C(=O)C1(C)CCCC2(C)c3cc(OC(C)=O)ccc3CCC12 (configuration not stated) = 0 (no)

Determine if CCCCCCCCCCCCOC(=O)/C=C\C(=O)NC(N)=O shows growth strictly lower than 80%.
0 (no)

###

tested on: T-47D breast; test: NCI-60 one-dose screen, 48 h (100 = growth as untreated, 0 = no growth, -100 = all killed); conditions: 10 µM unless noted
The panel holds about 83,000 compounds, 20% with a hit somewhere; the sample as a whole holds those more often.
Lab note: anything with growth below 90% is marked T; values at 90% or higher are marked F.

Record excerpt, results attached:
CC(C)(C)c1ccc(OCCOC(=O)CBr)cc1 = F
CCCCCCCCc1ccc(CCC(N)(CO)CO)cc1 = T
Cc1nnc(/N=C2\NC(=O)/C(=C/C=C/c3ccccc3)S2)s1 = T
NC(CSC(c1ccccc1)(c1ccccc1)c1ccccc1)C(=O)NCC(=O)O (configuration not stated) = F
COc1cc(-c2nc(/C=C3/C(=O)Nc4ccccc43)c3ccccn23)cc(OC)c1OC = T

Would you kindly look at the next entry?
Determine if N=C(N)c1ccc(-c2ccc(-c3ccc(Cl)cc3)s2)s1 shows growth strictly lower than 90%.
T

###

Listing of entries alongside the reported growth.
system: SK-MEL-5 melanoma; assay: NCI-60 one-dose screen, 48 h (100 = growth as untreated, 0 = no growth, -100 = all killed); conditions: 10 µM unless noted
Compounds without any hit were thinned out: in the full panel of roughly 83,000, 20% have a hit.
Form entry: value (%) — number only.

A selection of reference data follows.
CCCCN(CCCC)CCCNc1c2c(nc3ccc(Cl)cc13)CCCC2 = 106
COc1ccc(Oc2[nH]n(C3=Nc4ccccc4Sc4ccccc43)c(=O)c2C#N)cc1 = 84.8
O=C(Cc1ccccc1[N+](=O)[O-])c1ccc2c(c1)OCO2 = 103
CC(=O)Nc1nc(C)c(C(=O)N/N=C/N2CCCCC2)s1 = 113
CC(=O)Nc1ccc(S(=O)(=O)Cl)cc1 = 98.3

For reference, reported growth for O=C(N/N=C\c1ccc(-c2ccc(Br)cc2)o1)c1cc2oc(-c3cccc(C(F)(F)F)c3)cc2[nH]1 stands at 102

For reference, reported growth for O=C(Nn1cnc2ccccc21)N1CCCC1 stands at 113

For reference, reported growth for CNc1ccc(Nc2ccc(S(=O)(=O)O)cc2)c2c1C(=O)c1ccccc1C2=O stands at 99.9

For reference, reported growth for Cc1ccnc2c(NC(C)CCCN)cc(O)c(O)c12 (stereo not given) stands at 95.9

For reference, reported growth for CCCC(=O)NNc1[nH]c(-c2ccc(OC)cc2)cc1C(=O)OCC stands at 111

###

Listing of entries alongside the reported growth.
tested on: HT29 colon; assay: NCI-60 one-dose screen, 48 h (100 = growth as untreated, 0 = no growth, -100 = all killed); conditions: 10 µM unless noted
About 83,000 compounds went through this panel and 20% of them were active in at least one assay; those are over-represented in the sample as a whole.
Form entry: value (%) — number only.

CCOC(=O)c1c2c(cn1Cc1ccccc1)-c1oncc1CC2 = 111
c1ccc(Nc2ccccn2)cc1 = 99.4
CC(O)C(N)=O (stereo not given) = 111
O=C1C(Cl)=C(Nc2ccc(Nc3ccccc3)c(NC3=C(Cl)C(=O)c4ccccc4C3=O)c2)C(=O)c2ccccc21 = 66.4

For reference, reported growth for COc1ccc(/C(=C(\c2ccccc2)[N+](=O)[O-])c2ccc(OCCN3CCCC3)cc2)cc1 stands at 9.77

###

system: KM12 colon; test: NCI-60 one-dose screen, 48 h (100 = growth as untreated, 0 = no growth, -100 = all killed); details: 10 µM unless noted
The panel holds about 83,000 compounds, 20% with a hit somewhere; the sample as a whole holds those more often.
measured parameter: growth (%)
Form entry: value (%) — number only.

Cc1c(Cc2ccccc2)c(=O)oc2c(C)c(OCC(=O)n3nc(C#N)cc3N)ccc12 = 98.7
C=CCC(CCC(CC=C)C(=O)OCC)C(=O)OCC (centres undefined) = 99.8
CC(=O)OCC1O[C@@H](OC(C)=O)[C@@H](NC(=O)NS(=O)(=O)c2ccccc2)C(OC(C)=O)[C@@H]1OC(C)=O (some centres undefined) = 105
CC(O)CN(CC(C)O)N(CC(C)O)CC(C)O (centres undefined) = 109
CC(C)OC(=O)c1ccc2n1CCCc1cnc(Nc3ccccc3)nc1-2 = 52.8
CNc1ccc(Nc2ccc(S(=O)(=O)O)cc2)c2c1C(=O)c1ccccc1C2=O = 108

For reference, reported growth for COC(=O)C(Cc1cnc[nH]1)N1CC(=O)N2[C@@H](c3ccccc3)SC[C@H]2C1=O (some centres undefined) stands at 108

For reference, reported growth for CC(C)OC(=O)[C@H](C)N[P@@](=O)(OC[C@@]1(C)O[C@@H](n2cc(F)c(N)nc2=O)C[C@@H]1O[P@](=O)(N[C@@H](C)C(=O)OC(C)C)Oc1ccccc1)Oc1ccccc1 stands at 76

For reference, reported growth for CC(=O)OCC(=O)[C@@]1(O)[C@H](C)C[C@H]2[C@@H]3C=C(C)C4=Cc5c(cnn5-c5ccc(F)cc5)C[C@]4(C)[C@H]3[C@@H](O)C[C@@]21C stands at -46.7

For reference, reported growth for COc1ccc(/C=N/c2cc(C(C)(C)C)nn2-c2ccccc2)cc1 stands at 104

For reference, reported growth for COc1ccc(C(=O)N2N=C(c3ccc(Br)cc3)CC2c2cn(-c3ccccc3)nc2-c2ccccc2)cc1 (centres undefined) stands at 55.6

###

tested on: HS 578T breast; assay: NCI-60 one-dose screen, 48 h; conditions: 10 µM unless noted
This is part of a sample that, as a whole, favours compounds with a hit. Of some 83,000 tested, about 20% had one in any assay. The source made the active and inactive calls. The calls were made as follows: active = growth percent below 10; inactive = the rest.
Returns: one label drawn from active, inactive

Record excerpt, results attached:
CCOC(=O)c1c(C)oc2ncnc(Nc3ccc(C(=O)NCCc4ccccc4)cc3)c12 = inactive
NC(=O)CC(NC(=O)COc1ccc(Cl)cc1Cl)C(=O)O (configuration not stated) = inactive
Cc1ncc(C(=O)Nc2ccc(CN3CCN(C)CC3)c(C(F)(F)F)c2)cc1C#Cc1c(N)ncc2ccc(F)cc12 = active
CCCCCCC(C(=O)OCC)(C(=O)OCC)C1CCCCCC1 = inactive
COc1ccc2c(c1)cn1c3ccc(O)cc3[nH]c(=O)c21 = active
CCCCCCNC(=O)Oc1ccc(/C(=C(/C)Cc2ccc(OC)cc2)c2ccc(OCCN3CCCCC3)cc2)cc1 = inactive

// return assay outcome for COC(=O)c1ccc2[nH]c(O)c(C(=Nc3ccc(N(C)C(=O)CN4CCN(C)CC4)cc3)c3ccc4c(c3)OCO4)c2c1
inactive
